# subject_of_test: T1, hGal3 peptide 7 (human)
# T1 peptide: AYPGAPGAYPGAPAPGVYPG
# procedure_summary: peptide ELISA, 20-mer library (Epitope Mapping)

binder	binding result
15G7.2A7 (antibody, V domains shown, murine antibody) VH: EVQLQQSGPELVKPGASVKISCKASGYTFTDYYMNWVKQSHGKSLEWIGDINPNNGGTNYNQKFKGKATLTVDKSSSTAYMELRSLTSEDSAVYYCTSGYGFPYWGQGTLVTVSA VL: DIQMNQSPSSLSASLGDTISITCRASQNINIWLSWYQQKPGNIPQLLIYKASNLHTGVPSRFSGSGSGTDFTLTISSLQPEDIATYYCLQGQSYPLTFGAGTKLVMK	binds
